Assay: protein stability index of a GFP-peptide fusion (GPS, HEK-293T) (PSI 1-6); higher = more stable;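 also: 24-mer peptide tiles fused after GFP, lentivirally expressed, FACS-sorted into six equal bins by GFP/DsRed ratio, decoded by Illumina sequencing, PSI is the read-weighted mean bin number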
Details: treatment: MLN4924 1 uM, 8 h; c terminus: a fixed tail appended
assay_endpoint: protein stability index

[[record]]
chain = "QIMKEGKATASEAVDCKWYIRAPP [NETO1]"
experimental_value = 3.24

[[record]]
chain = "QFIANLDQLNDGQDFAKDLLKTLY [PSD2]"
experimental_value = 2.42

[[record]]
chain = "QVEVDAQQCMLEILDTAGTEQFTA [RAP1B]"
experimental_value = 4.59

[[record]]
chain = "GLSPEEKEQLSNDRETQEGKPPTA [ELOA2]"
experimental_value = 5.31

[[record]]
chain = "YLTVVFEHDAWFIFFMAAFAFSNG [SLC29A1]"
experimental_value = 2.92

[[record]]
chain = "KEEREDTPIQLQELLALETALGGQ [TCAP]"
experimental_value = 5.04

[[record]]
chain = "MELPSGPGPERLFDSHRLPGDCFL [AUP1]"
experimental_value = 3.27

[[record]]
chain = "GVNTVFHCASPPPSSNNKELFYRV [NSDHL]"
experimental_value = 2.4

[[record]]
chain = "EQLRREKIDLENTLEQEQEALVNR [CCDC6]"
experimental_value = 5.42

[[record]]
chain = "IIYMGSFMLMLLVLGIQVKCFHEI [CDS1]"
experimental_value = 3.27

[[record]]
chain = "WTDSEVDSSCSGQPIHLWQFLKEL [SPDEF]"
experimental_value = 3.1

[[record]]
chain = "EELLWRKVYYEVIQLIKTNKKHIH [SMG5]"
experimental_value = 2.4

[[record]]
chain = "SIIAVAMQRGARLPAEVAGLSQVL [POMT2]"
experimental_value = 2.01

[[record]]
chain = "SWLTRRAIRPENRAPGAGLGQDRQ [EMD]"
experimental_value = 4.05

[[record]]
chain = "VNRFGTYPALASKNGKKWEILNFN [ACSBG2]"
experimental_value = 2.71

[[record]]
chain = "DCLQFYVNSTLKELRRLFLVQDLV [RTN1]"
experimental_value = 2.81

[[record]]
chain = "KKPLAGSVDEQNALREVYAHAVLG [WEE1]"
experimental_value = 3.54

[[record]]
chain = "FCSVIRINSTAPFEEQENYFLLCD [ZNF277]"
experimental_value = 1.83

[[record]]
chain = "MELGPEPPHRRRLLFACSPPPASQ [CDC25A]"
experimental_value = 3.47

[[record]]
chain = "TFKSLSHIDPDVLYPSLNVTSFDS [ALG2]"
experimental_value = 2.92

[[record]]
chain = "ADGIEVSYNACGVLSHIMFDGPEA [ZER1]"
experimental_value = 2.94

[[record]]
chain = "GVADFSATYLRCQLLLIKALQEKL [INTS4]"
experimental_value = 2.65

[[record]]
chain = "TEGGNDDSDFRELHTAREFSEEDE [RTN2]"
experimental_value = 5.13

[[record]]
chain = "RMTSSPSSIPRRDDFFRHESGEHF [RAD54B]"
experimental_value = 3.68

[[record]]
chain = "FHELQMQVTASDSGDPPLSSNVSL [PCDHGA10]"
experimental_value = 3.38

[[record]]
chain = "AVVKGIQSSGKVMYFSSLFPYVVL [SLC6A17]"
experimental_value = 2.51

[[record]]
chain = "ACCGGFLEVADFLIKAGADIELGC [ANKRD17]"
experimental_value = 3.05

[[record]]
chain = "TWWRVRNAANRTGYVPSNYVERKN [NCK2]"
experimental_value = 3.06

[[record]]
chain = "ISQMDSDQFIPIWTVANMEEIKKL [LARP4]"
experimental_value = 3.32

[[record]]
chain = "MGREKCHQYWPAERSARYQYFVVD [PTPRD]"
experimental_value = 2.33

[[record]]
chain = "THHKLCTFILKNPPENSDSGTGKK [EIF5]"
experimental_value = 4.28

[[record]]
chain = "ADSGNFKRCINLWKYALDMQQSNL [FEM1C]"
experimental_value = 2.21

[[record]]
chain = "HRRGLGVDSKPELQRVLEHRRRNQ [FAM107A]"
experimental_value = 4.11

[[record]]
chain = "RADEPQWSLYPSDSQVSEEVKTRH [CHGB]"
experimental_value = 5.18

[[record]]
chain = "ATSATSHTRSLNSIIHQMEKFSSS [FBF1]"
experimental_value = 3.59

[[record]]
chain = "CGSFYREPIILPCSHNLCQACARN [TRIM9]"
experimental_value = 2.19

[[record]]
chain = "RRLKYFFMSPCDKFRAKGRKPCKL [MCOLN1]"
experimental_value = 2.71

[[record]]
chain = "DSKIVVPPLPGKALKRQLPFRGDE [SNX12]"
experimental_value = 4.36

[[record]]
chain = "KEDGEPSWREAKVSWFGSPTTSFL [PWWP2B]"
experimental_value = 3.17

[[record]]
chain = "ESGLGHFSLRVHTGCHKKLGPEAR"
experimental_value = 3.32

[[record]]
chain = "SWIQLPPMQERRASFYACRLDKHL [KLHL14]"
experimental_value = 2.26

[[record]]
chain = "CLTLATAVVQLYLALPPGAEHWTK [WAS]"
experimental_value = 2.77

[[record]]
chain = "LDSSLASLVGNLGISGTTTKKGDL [SNAP91]"
experimental_value = 4.73

[[record]]
chain = "VPHWINSNTLGFGTEQAPYGMQTQ [ETS2]"
experimental_value = 2.88

[[record]]
chain = "LEAELLQIEERHQEKKRKFLESTD [SMARCE1]"
experimental_value = 5.04

[[record]]
chain = "EDSLATVKVVLIPVGQEIVIPFKV [IQUB]"
experimental_value = 2.43

[[record]]
chain = "DKPLMPYMRYSRKVWDQVKASNPD [SMARCE1]"
experimental_value = 3.44

[[record]]
chain = "PICVQIPWDKNPEALAKWAEGRTG [CRY1]"
experimental_value = 3.6

